# credit: patent US20230286919A1

# assayed_system: PRKCD (PKC delta) (Homo sapiens, UniProt Q05655)
# Sequence (Q05655 whole entry): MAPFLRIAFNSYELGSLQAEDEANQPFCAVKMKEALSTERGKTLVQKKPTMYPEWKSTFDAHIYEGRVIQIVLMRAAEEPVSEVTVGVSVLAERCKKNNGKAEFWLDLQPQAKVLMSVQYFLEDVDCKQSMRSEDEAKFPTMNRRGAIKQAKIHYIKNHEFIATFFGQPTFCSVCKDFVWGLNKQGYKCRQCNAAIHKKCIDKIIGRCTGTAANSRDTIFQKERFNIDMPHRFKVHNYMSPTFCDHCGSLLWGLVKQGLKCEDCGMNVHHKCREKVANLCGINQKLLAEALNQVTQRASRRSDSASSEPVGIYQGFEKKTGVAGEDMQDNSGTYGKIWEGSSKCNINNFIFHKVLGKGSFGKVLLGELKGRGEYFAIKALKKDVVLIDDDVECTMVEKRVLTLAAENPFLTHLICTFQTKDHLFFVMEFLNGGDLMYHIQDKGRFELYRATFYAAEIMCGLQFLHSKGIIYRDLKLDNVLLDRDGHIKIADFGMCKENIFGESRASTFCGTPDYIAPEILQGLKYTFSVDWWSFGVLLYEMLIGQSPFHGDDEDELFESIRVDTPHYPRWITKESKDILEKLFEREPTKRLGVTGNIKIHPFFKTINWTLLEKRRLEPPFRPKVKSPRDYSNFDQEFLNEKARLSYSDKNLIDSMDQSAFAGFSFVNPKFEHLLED
# assay_name: SelectScreen kinase profiling, PRKCD
# assay_setup: read-out: Enzyme inhibitory activity IC50
observed_property: IC50

Recall and state the measured IC50 for C[C@@H]1CCC(c2cc3c4c(cncc4c2)[C@H](C)C3)=C1C=O [323-1, (15R,2R)-Delavatine A] .
> 20 µM

Recall and state the measured IC50 for C[C@@H]1CCC(c2cc3c4c(cncc4c2)[C@@H](C)C3)=C1C=O [323-2, (15S,2R)-Delavatine A] .
> 20 µM

----------
pIC50: −log10 of the molar value.
I'd appreciate it if you could supply pIC50 values for the items below.

// output pIC50; input C[C@@H]1CCC(c2cc3c4c(cncc4c2)[C@@H](C)C3)=C1C=O [323-2, (15S,2R)-Delavatine A] ; system ERBB2 (HER2) (Homo sapiens, UniProt P04626)
< 4.70

// output pIC50; input C[C@@H]1CCC(c2cc3c4c(cncc4c2)[C@H](C)C3)=C1C=O [323-1, (15R,2R)-Delavatine A] ; system ERBB2 (HER2) (Homo sapiens, UniProt P04626)
< 4.70

----------
Observed IC50 for UniProt:P29376, reported per entry below.
Sequence (P29376 17-864): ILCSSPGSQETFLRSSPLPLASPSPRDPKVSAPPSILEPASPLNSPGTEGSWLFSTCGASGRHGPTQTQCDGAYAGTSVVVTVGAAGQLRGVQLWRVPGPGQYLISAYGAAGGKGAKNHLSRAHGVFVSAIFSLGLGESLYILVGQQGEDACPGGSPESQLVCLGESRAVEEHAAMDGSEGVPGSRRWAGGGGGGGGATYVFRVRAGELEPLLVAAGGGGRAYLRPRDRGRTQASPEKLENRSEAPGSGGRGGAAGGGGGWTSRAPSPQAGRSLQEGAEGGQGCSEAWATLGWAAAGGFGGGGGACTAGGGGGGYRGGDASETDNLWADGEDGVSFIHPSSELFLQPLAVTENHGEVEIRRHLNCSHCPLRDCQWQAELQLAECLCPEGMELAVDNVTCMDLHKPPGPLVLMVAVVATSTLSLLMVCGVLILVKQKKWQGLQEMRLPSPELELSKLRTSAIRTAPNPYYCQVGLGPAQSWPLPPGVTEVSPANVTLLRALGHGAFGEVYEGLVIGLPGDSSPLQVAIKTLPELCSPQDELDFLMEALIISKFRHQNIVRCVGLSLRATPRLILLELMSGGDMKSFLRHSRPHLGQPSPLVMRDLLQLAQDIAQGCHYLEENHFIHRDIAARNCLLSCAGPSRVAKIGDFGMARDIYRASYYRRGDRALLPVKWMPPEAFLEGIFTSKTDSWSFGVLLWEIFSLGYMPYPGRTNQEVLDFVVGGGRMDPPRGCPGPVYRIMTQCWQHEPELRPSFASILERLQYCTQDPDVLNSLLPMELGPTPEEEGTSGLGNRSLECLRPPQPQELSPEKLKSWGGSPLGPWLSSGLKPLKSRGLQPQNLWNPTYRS

Recall and state the measured IC50 for C[C@@H]1CCC(c2cc3c4c(cncc4c2)[C@@H](C)C3)=C1C=O [323-2, (15S,2R)-Delavatine A] .
5.25 µM

Recall and state the measured IC50 for C[C@@H]1CCC(c2cc3c4c(cncc4c2)[C@H](C)C3)=C1C=O [323-1, (15R,2R)-Delavatine A] .
6.22 µM

----------
observed_property: IC50

// output IC50; input C[C@@H]1CCC(c2cc3c4c(cncc4c2)[C@@H](C)C3)=C1C=O [323-2, (15S,2R)-Delavatine A] ; system SRC N1 (Homo sapiens, UniProt P12931)
> 20 µM

// output IC50; input C[C@@H]1CCC(c2cc3c4c(cncc4c2)[C@H](C)C3)=C1C=O [323-1, (15R,2R)-Delavatine A] ; system SRC N1 (Homo sapiens, UniProt P12931)
> 20 µM

----------
# assayed_system: MAPK3 (ERK1) (Homo sapiens)
# Sequence (P27361 whole entry): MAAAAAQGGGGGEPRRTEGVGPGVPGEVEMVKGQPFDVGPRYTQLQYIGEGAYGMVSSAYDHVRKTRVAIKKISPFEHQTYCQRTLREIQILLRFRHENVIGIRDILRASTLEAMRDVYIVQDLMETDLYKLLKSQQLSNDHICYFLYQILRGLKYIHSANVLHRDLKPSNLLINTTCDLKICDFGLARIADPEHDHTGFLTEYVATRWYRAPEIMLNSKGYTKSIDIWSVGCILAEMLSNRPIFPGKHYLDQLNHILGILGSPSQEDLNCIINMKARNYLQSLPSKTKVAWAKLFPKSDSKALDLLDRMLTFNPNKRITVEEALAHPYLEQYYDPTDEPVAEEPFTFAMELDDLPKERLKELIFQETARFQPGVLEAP
pIC50: −log10 of the molar value.
observed_property: pIC50

Recall and state the measured pIC50 for C[C@@H]1CCC(c2cc3c4c(cncc4c2)[C@H](C)C3)=C1C=O [323-1, (15R,2R)-Delavatine A] .
< 4.70

Recall and state the measured pIC50 for C[C@@H]1CCC(c2cc3c4c(cncc4c2)[C@@H](C)C3)=C1C=O [323-2, (15S,2R)-Delavatine A] .
< 4.70

----------
# assayed_system: FLT4 (VEGFR3) (Homo sapiens)
# Sequence (P35916 25-1363): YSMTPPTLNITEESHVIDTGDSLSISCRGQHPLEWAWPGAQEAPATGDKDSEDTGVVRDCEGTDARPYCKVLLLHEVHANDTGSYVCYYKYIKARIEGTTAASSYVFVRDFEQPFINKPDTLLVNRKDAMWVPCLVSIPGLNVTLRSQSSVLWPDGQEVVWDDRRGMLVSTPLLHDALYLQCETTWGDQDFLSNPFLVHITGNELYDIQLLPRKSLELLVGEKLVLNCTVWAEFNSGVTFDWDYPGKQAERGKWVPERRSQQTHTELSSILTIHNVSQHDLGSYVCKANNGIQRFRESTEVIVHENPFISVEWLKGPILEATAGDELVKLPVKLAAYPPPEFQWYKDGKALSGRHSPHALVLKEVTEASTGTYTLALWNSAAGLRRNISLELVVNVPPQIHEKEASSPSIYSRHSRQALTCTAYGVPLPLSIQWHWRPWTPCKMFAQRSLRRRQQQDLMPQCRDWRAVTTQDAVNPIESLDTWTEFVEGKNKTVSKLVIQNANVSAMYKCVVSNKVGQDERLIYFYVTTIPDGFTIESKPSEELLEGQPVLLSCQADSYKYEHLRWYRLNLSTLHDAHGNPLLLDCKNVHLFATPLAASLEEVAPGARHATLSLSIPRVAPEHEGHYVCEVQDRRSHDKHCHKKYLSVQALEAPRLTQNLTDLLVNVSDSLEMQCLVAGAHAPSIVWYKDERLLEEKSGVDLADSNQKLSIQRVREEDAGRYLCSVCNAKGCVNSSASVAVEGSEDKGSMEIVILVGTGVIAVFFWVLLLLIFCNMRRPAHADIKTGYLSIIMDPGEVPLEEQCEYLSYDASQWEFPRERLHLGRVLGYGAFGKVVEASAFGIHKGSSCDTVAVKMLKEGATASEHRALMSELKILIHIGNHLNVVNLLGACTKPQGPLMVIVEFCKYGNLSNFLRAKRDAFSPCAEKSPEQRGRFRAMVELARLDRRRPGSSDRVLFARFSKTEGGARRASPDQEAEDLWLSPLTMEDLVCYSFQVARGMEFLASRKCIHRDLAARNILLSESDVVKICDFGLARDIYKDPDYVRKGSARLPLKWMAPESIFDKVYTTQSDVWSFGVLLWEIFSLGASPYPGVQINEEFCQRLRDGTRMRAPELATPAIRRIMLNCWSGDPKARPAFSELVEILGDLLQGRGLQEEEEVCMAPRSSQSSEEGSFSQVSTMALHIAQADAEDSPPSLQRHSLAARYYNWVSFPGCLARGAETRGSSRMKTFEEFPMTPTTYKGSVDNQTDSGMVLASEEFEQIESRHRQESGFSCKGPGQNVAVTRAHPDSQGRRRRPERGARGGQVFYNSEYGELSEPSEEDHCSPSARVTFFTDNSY
# assay_name: SelectScreen kinase profiling, FLT4
# Type: biochemical
# assay_setup: read-out: Enzyme inhibitory activity IC50
pIC50: −log10 of the molar value.
observed_property: pIC50

Recall and state the measured pIC50 for C[C@@H]1CCC(c2cc3c4c(cncc4c2)[C@@H](C)C3)=C1C=O [323-2, (15S,2R)-Delavatine A] .
< 4.70

Recall and state the measured pIC50 for C[C@@H]1CCC(c2cc3c4c(cncc4c2)[C@H](C)C3)=C1C=O [323-1, (15R,2R)-Delavatine A] .
< 4.70

----------
observed_property: IC50

// output IC50; input C[C@@H]1CCC(c2cc3c4c(cncc4c2)[C@H](C)C3)=C1C=O [323-1, (15R,2R)-Delavatine A] ; system TGFBR2 (Homo sapiens, UniProt P37173)
> 20 µM

// output IC50; input C[C@@H]1CCC(c2cc3c4c(cncc4c2)[C@@H](C)C3)=C1C=O [323-2, (15S,2R)-Delavatine A] ; system TGFBR2 (Homo sapiens, UniProt P37173)
> 20 µM

----------
Observed IC50 for FGFR1 (Homo sapiens), reported per entry below.

Recall and state the measured IC50 for C[C@@H]1CCC(c2cc3c4c(cncc4c2)[C@H](C)C3)=C1C=O [323-1, (15R,2R)-Delavatine A] .
> 20 µM

Recall and state the measured IC50 for C[C@@H]1CCC(c2cc3c4c(cncc4c2)[C@@H](C)C3)=C1C=O [323-2, (15S,2R)-Delavatine A] .
> 20 µM

----------
I'd appreciate it if you could supply IC50 values for the items below.

// output IC50; input C[C@@H]1CCC(c2cc3c4c(cncc4c2)[C@@H](C)C3)=C1C=O [323-2, (15S,2R)-Delavatine A] ; system LYN A (Homo sapiens, UniProt P07948)
> 20 µM

// output IC50; input C[C@@H]1CCC(c2cc3c4c(cncc4c2)[C@H](C)C3)=C1C=O [323-1, (15R,2R)-Delavatine A] ; system LYN A (Homo sapiens, UniProt P07948)
> 20 µM

----------
# assayed_system: TGFBR1 (ALK5) (Homo sapiens, UniProt P36897)
# Sequence (P36897 34-503): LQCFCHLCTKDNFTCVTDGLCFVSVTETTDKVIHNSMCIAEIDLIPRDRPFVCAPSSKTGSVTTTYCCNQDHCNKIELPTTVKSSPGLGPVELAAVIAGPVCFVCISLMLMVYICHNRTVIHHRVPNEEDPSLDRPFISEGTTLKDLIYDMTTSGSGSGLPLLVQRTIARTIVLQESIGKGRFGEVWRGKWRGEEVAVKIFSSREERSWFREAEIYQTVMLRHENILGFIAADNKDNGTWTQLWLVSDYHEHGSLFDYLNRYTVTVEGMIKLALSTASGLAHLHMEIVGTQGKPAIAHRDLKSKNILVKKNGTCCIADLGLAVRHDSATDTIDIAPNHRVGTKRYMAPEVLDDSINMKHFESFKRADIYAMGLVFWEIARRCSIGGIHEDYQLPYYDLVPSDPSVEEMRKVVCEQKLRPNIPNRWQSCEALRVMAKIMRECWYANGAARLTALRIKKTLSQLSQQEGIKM
I'd appreciate it if you could supply IC50 values for the items below.
Number in µM, nothing else.

// output IC50; input C[C@@H]1CCC(c2cc3c4c(cncc4c2)[C@@H](C)C3)=C1C=O [323-2, (15S,2R)-Delavatine A] ; system TGFBR1 (ALK5) (Homo sapiens, UniProt P36897)
9.25

// output IC50; input C[C@@H]1CCC(c2cc3c4c(cncc4c2)[C@H](C)C3)=C1C=O [323-1, (15R,2R)-Delavatine A] ; system TGFBR1 (ALK5) (Homo sapiens, UniProt P36897)
7.95

----------
# assayed_system: JAK3 (Homo sapiens, UniProt P52333)
# Sequence (P52333 1-1124): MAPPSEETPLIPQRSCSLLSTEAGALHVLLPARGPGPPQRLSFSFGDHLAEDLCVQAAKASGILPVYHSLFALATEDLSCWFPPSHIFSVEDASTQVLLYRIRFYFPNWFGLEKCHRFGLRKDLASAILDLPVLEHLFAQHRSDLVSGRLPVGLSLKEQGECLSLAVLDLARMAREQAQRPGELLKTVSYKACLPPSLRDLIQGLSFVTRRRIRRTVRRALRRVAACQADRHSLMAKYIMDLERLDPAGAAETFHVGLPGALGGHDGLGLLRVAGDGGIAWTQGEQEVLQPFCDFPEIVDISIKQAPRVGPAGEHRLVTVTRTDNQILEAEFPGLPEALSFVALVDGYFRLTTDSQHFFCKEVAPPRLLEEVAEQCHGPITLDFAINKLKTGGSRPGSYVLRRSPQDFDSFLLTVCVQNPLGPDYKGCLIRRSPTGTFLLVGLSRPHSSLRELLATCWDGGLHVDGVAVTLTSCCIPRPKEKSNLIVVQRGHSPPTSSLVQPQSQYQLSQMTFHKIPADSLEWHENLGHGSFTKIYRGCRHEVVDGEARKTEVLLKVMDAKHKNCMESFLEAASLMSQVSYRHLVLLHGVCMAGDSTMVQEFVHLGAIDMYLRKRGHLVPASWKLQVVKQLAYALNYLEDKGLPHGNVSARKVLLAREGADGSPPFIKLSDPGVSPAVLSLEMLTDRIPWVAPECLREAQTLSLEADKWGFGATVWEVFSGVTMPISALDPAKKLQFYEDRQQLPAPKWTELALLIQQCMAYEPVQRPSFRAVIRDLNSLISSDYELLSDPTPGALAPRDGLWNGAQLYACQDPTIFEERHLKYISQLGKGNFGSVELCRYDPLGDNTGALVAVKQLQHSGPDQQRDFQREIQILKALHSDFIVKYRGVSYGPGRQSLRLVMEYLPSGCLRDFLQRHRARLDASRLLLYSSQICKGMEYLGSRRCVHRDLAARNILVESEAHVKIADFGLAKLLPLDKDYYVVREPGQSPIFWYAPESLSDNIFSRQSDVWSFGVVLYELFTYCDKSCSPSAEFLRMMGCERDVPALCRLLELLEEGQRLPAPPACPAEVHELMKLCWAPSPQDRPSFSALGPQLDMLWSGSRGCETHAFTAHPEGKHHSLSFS
I'd appreciate it if you could supply IC50 values for the items below.

Recall and state the measured IC50 for C[C@@H]1CCC(c2cc3c4c(cncc4c2)[C@@H](C)C3)=C1C=O [323-2, (15S,2R)-Delavatine A] .
11.6 µM

Recall and state the measured IC50 for C[C@@H]1CCC(c2cc3c4c(cncc4c2)[C@H](C)C3)=C1C=O [323-1, (15R,2R)-Delavatine A] .
4.26 µM
